Parameter: Sa399 MIC. Scope: all listed entries.
tested on: Staphylococcus aureus SAU.399 (ATCC 43300), Methicillin and Oxacillin Resistant; type: cell-based; details: ATCC 43300
Numeric only. Scale: µg/mL

I am curious: what Sa399 MIC value has been reported for CCCCCCCc1ccc(NC(=O)N[C@@H](Cc2c[nH]c3ccccc23)C(=O)N[C@H](CC(N)=O)C(=O)N[C@@H](CC(=O)O)C(=O)N[C@@H]2C(=O)NCC(=O)N[C@@H](CCCN)C(=O)N[C@@H](CC(=O)O)C(=O)N[C@H](C)C(=O)N[C@@H](CC(=O)O)C(=O)NCC(=O)N[C@H](CO)C(=O)N[C@@H]([C@H](C)CC(=O)O)C(=O)N[C@@H](CC(=O)c3ccccc3N)C(=O)O[C@@H]2C)cc1 ?
0.125

# Sa399 MIC lookup, item CCc1ccc(CCC(=O)N[C@@H](Cc2c[nH]c3ccccc23)C(=O)N[C@H](CC(N)=O)C(=O)N[C@@H](CC(=O)O)C(=O)N[C@@H]2C(=O)NCC(=O)N[C@@H](CCCN)C(=O)N[C@@H](CC(=O)O)C(=O)N[C@H](C)C(=O)N[C@@H](CC(=O)O)C(=O)NCC(=O)N[C@H](CO)C(=O)N[C@@H]([C@H](C)CC(=O)O)C(=O)N[C@@H](CC(=O)c3ccccc3N)C(=O)O[C@@H]2C)cc1
8

Can you look up the measured Sa399 MIC of CC(C)C1CCC(CCCC(=O)N[C@@H](Cc2c[nH]c3ccccc23)C(=O)N[C@H](CC(N)=O)C(=O)N[C@@H](CC(=O)O)C(=O)N[C@@H]2C(=O)NCC(=O)N[C@@H](CCCN)C(=O)N[C@@H](CC(=O)O)C(=O)N[C@H](C)C(=O)N[C@@H](CC(=O)O)C(=O)NCC(=O)N[C@H](CO)C(=O)N[C@@H]([C@H](C)CC(=O)O)C(=O)N[C@@H](CC(=O)c3ccccc3N)C(=O)O[C@@H]2C)CC1 (some centres unmarked) for me?
1

What value of Sa399 MIC has been recorded for this entry: CCCCCCCCCC(C)NC(=O)N[C@@H](Cc1c[nH]c2ccccc12)C(=O)N[C@H](CC(N)=O)C(=O)N[C@@H](CC(=O)O)C(=O)N[C@@H]1C(=O)NCC(=O)N[C@@H](CCCN)C(=O)N[C@@H](CC(=O)O)C(=O)N[C@H](C)C(=O)N[C@@H](CC(=O)O)C(=O)NCC(=O)N[C@H](CO)C(=O)N[C@@H]([C@H](C)CC(=O)O)C(=O)N[C@@H](CC(=O)c2ccccc2N)C(=O)O[C@@H]1C (single isomer, unassigned) [14 isomer I]
0.5

What does the record list as Sa399 MIC for CCCCCCCCC1CC1C(=O)N[C@@H](Cc1c[nH]c2ccccc12)C(=O)N[C@H](CC(N)=O)C(=O)N[C@@H](CC(=O)O)C(=O)N[C@@H]1C(=O)NCC(=O)N[C@@H](CCCN)C(=O)N[C@@H](CC(=O)O)C(=O)N[C@H](C)C(=O)N[C@@H](CC(=O)O)C(=O)NCC(=O)N[C@H](CO)C(=O)N[C@@H]([C@H](C)CC(=O)O)C(=O)N[C@@H](CC(=O)c2ccccc2N)C(=O)O[C@@H]1C (single isomer, unassigned) [27 isomer I] ?
2
